Biological target: PI3Kδ (Homo sapiens (Human), UniProt O00329)
Sequence (O00329 whole entry): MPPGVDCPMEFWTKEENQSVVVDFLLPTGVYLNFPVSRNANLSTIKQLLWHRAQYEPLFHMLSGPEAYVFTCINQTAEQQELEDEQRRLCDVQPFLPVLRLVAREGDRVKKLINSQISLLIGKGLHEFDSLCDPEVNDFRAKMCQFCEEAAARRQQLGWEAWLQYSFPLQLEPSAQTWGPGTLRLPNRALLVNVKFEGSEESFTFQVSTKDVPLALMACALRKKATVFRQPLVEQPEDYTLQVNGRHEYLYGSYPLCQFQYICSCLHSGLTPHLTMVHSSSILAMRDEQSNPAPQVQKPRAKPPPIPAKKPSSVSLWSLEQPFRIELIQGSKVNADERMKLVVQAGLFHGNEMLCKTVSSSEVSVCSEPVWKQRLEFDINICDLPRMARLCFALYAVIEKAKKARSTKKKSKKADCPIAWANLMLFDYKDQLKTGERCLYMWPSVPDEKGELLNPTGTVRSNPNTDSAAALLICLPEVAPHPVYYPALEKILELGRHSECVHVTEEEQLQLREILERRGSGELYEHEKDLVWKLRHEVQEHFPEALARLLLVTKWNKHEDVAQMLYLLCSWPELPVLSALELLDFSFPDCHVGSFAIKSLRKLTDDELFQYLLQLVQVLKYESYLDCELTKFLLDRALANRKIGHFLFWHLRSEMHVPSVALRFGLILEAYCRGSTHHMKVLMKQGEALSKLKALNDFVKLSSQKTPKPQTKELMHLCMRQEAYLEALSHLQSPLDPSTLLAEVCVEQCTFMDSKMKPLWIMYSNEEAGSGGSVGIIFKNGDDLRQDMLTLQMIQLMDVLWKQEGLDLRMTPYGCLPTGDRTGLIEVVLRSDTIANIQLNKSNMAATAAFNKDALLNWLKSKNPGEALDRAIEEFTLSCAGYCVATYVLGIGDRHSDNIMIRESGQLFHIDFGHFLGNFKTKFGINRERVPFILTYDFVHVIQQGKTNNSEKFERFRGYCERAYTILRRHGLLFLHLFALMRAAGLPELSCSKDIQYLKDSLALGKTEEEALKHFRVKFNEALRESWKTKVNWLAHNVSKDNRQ
Sequence (P27986 whole entry partner): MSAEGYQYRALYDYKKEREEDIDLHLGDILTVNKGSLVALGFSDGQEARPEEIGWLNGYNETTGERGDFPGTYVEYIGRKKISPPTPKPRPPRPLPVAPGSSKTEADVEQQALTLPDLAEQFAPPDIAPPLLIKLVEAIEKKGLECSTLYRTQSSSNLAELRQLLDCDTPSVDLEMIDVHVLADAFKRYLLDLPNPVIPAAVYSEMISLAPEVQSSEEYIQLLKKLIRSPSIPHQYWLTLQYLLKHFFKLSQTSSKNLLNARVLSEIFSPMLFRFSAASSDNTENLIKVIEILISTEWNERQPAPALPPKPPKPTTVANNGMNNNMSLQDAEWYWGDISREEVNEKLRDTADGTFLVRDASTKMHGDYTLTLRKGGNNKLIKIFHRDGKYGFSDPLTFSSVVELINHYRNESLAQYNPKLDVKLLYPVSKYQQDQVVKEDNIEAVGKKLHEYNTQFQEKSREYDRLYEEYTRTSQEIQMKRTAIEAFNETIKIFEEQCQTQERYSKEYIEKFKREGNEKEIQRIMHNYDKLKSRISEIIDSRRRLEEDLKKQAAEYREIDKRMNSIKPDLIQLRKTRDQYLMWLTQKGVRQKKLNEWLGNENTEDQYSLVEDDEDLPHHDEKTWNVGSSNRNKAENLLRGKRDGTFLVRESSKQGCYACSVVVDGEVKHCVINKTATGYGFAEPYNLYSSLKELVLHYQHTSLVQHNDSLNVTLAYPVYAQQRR
Experiment: Inhibition of PI3Kδ efficacy assay (ADP-Glo kinase assay)
Format: biochemical
Conditions: Table 4; read-out: PI3Kδ inhibitory activity (IC50)
pIC50: −log10 of the molar value.
Observed Property: pIC50

                                    compound                              assay_target  reported_result
 0  COc1ncc(-c2ccc3ncnc(C4CCN(C(=O)/C=C/C(C)=O)CC4)c3c2)cc1NS(=O)(=O)c1c(F)cccc1F [Example 205]  PI3Kδ (Homo sapiens (Human), UniProt O00329)             8.05
 1  COc1ncc(-c2ccc3ncnc(N4CC5CCC(C4)N5C(=O)/C=C/C(C)=O)c3c2)cc1NS(=O)(=O)c1c(F)cc(F)cc1F [Example 155]  PI3Kδ (Homo sapiens (Human), UniProt O00329)             7.27
 2  COc1ncc(-c2ccc3ncnc(N4CCC5(CC4)CN(C(=O)/C=C/C(C)=O)C5)c3c2)cc1NS(=O)(=O)c1ccc(F)cc1Cl [Example 171]  PI3Kδ (Homo sapiens (Human), UniProt O00329)             7.40
 3  COc1ncc(-c2ccc3ncnc(N4CCN(C(=O)/C=C/C(C)=O)CC4)c3c2)cc1NS(C)(=O)=O [Example 170]  PI3Kδ (Homo sapiens (Human), UniProt O00329)             7.77
 4  COc1ncc(-c2ccc3ncnc(N4CCC5(CC4)CN(C(=O)/C=C/C(C)=O)C5)c3c2)cc1NS(=O)(=O)c1sc(C)nc1C [Example 178]  PI3Kδ (Homo sapiens (Human), UniProt O00329)             8.04
 5  COc1ncc(-c2ccc3ncnc(N4CCC5(CC4)CN(C(=O)/C=C/C(C)=O)C5)c3c2)cc1NS(=O)(=O)c1ccc(F)cc1 [Example 161]  PI3Kδ (Homo sapiens (Human), UniProt O00329)             8.00
 6  COc1ncc(-c2ccc3ncnc(C4=CCN(C(=O)/C=C/C(C)=O)CC4)c3c2)cc1NS(=O)(=O)c1ccccc1F [Example 200]  PI3Kδ (Homo sapiens (Human), UniProt O00329)             8.01
 7  COc1ncc(-c2ccc3ncnc(N4CCN(C(=O)/C=C/C(C)=O)CC4)c3n2)cc1NS(=O)(=O)c1c(F)cc(F)cc1F [Example 219]  PI3Kδ (Homo sapiens (Human), UniProt O00329)             7.94
 8  CCOc1c([C@H](C)n2nc(C)c3c(N)ncnc32)cc(Cl)c(F)c1[C@@H]1CNC(=O)C1 [Parsaclisib, reference compound]  PI3Kδ (Homo sapiens (Human), UniProt O00329)             8.40
 9  COc1ncc(-c2ccc3ncnc(C4=CCN(C(=O)/C=C/C(C)=O)CC4)c3c2)cc1NS(=O)(=O)c1c(F)cccc1F [Example 201]  PI3Kδ (Homo sapiens (Human), UniProt O00329)             7.93
10  COc1ncc(-c2ccc3ncnc(N4CC5CCC(C4)N5C(=O)/C=C/C(C)=O)c3c2)cc1NS(=O)(=O)c1ccc(F)cc1Cl [Example 175]  PI3Kδ (Homo sapiens (Human), UniProt O00329)             7.79
11  COc1ncc(-c2ccc3ncnc(C4CCN(C(=O)/C=C/C(C)=O)CC4)c3n2)cc1NS(=O)(=O)c1c(F)cccc1Cl [Example 235]  PI3Kδ (Homo sapiens (Human), UniProt O00329)             8.62
12  COc1ncc(-c2ccc3ncnc(C4CCN(C(=O)/C=C/C(C)=O)CC4)c3n2)cc1NS(=O)(=O)c1ccc(F)cc1F [Example 234]  PI3Kδ (Homo sapiens (Human), UniProt O00329)             7.70
13  C=C(C(=O)N1CCN(c2ncnc3ccc(-c4cnc(OC)c(NS(=O)(=O)c5ccc(F)cc5F)c4)cc23)CC1)C(C)O (centres unmarked) [Example 167]  PI3Kδ (Homo sapiens (Human), UniProt O00329)             7.93
14  COc1ncc(-c2ccc3ncnc(C4CCN(C(=O)/C=C/C(C)=O)CC4)c3c2)cc1NS(=O)(=O)c1sc(C)nc1C [Example 203]  PI3Kδ (Homo sapiens (Human), UniProt O00329)             7.98
15  COc1ncc(-c2ccc3ncnc(N4CCN(C(=O)/C=C/C(C)=O)CC4)c3c2)cc1S(=O)(=O)Nc1ccc(F)cc1F [Example 166]  PI3Kδ (Homo sapiens (Human), UniProt O00329)             7.65
16  COc1ncc(-c2ccc3ncnc(N4CCN(C(=O)/C=C/C(C)=O)CC4)c3n2)cc1NS(=O)(=O)c1sc(C)nc1C [Example 222]  PI3Kδ (Homo sapiens (Human), UniProt O00329)             7.93
17  COc1ncc(-c2ccc3ncnc(N4CCN(C(=O)/C=C/C(C)=O)[C@H](C)C4)c3n2)cc1NS(=O)(=O)c1ccccc1F [Example 228]  PI3Kδ (Homo sapiens (Human), UniProt O00329)             7.80
18  COc1ncc(-c2ccc3ncnc(N4CCN(C(=O)/C=C/C(C)=O)C[C@@H]4C)c3c2)cc1NS(=O)(=O)c1sc(C)nc1C [Example 173]  PI3Kδ (Homo sapiens (Human), UniProt O00329)             7.78
19  COc1ncc(-c2ccc3ncnc(C4CCN(C(=O)/C=C/C(C)=O)CC4)c3c2)cc1NS(=O)(=O)c1ccccc1F [Example 204]  PI3Kδ (Homo sapiens (Human), UniProt O00329)             7.77
20  C=C(C(C)=O)C(=O)N1CCN(c2ncnc3ccc(-c4cnc(OC)c(NS(=O)(=O)c5ccc(F)cc5F)c4)cc23)CC1 [Example 168]  PI3Kδ (Homo sapiens (Human), UniProt O00329)             7.76
21  COc1ncc(-c2ccc3ncnc(N4CC5CCC(C4)N5C(=O)/C=C/C(C)=O)c3c2)cc1NS(=O)(=O)c1c(F)cccc1F [Example 145]  PI3Kδ (Homo sapiens (Human), UniProt O00329)             7.62
22  COc1ncc(-c2ccc3ncnc(N4CCN(C(=O)/C=C/C(C)=O)CC4)c3c2)cc1NS(=O)(=O)c1ccncc1C [Example 172]  PI3Kδ (Homo sapiens (Human), UniProt O00329)             7.95
23  COC(=O)c1ncc(-c2ccc3ncnc(N4CCN(C(=O)/C=C/C(C)=O)CC4)c3c2)cc1NS(=O)(=O)c1ccc(F)cc1F [Example 181]  PI3Kδ (Homo sapiens (Human), UniProt O00329)             7.69
24  COc1ncc(-c2ccc3ncnc(N4CCN(C(=O)/C=C/C(C)=O)CC4)c3c2)cc1NS(=O)(=O)c1sc(C)nc1C [Example 160]  PI3Kδ (Homo sapiens (Human), UniProt O00329)             7.82
25  COc1ncc(-c2ccc3ncnc(N4CCN(C(=O)/C=C/C(C)=O)CC4)c3n2)cc1NS(=O)(=O)c1c(Cl)cncc1Cl [Example 224]  PI3Kδ (Homo sapiens (Human), UniProt O00329)             7.62

* * *

Target: PI3Kα (Homo sapiens (Human))
Sequence (P42336 whole entry, one chain of several): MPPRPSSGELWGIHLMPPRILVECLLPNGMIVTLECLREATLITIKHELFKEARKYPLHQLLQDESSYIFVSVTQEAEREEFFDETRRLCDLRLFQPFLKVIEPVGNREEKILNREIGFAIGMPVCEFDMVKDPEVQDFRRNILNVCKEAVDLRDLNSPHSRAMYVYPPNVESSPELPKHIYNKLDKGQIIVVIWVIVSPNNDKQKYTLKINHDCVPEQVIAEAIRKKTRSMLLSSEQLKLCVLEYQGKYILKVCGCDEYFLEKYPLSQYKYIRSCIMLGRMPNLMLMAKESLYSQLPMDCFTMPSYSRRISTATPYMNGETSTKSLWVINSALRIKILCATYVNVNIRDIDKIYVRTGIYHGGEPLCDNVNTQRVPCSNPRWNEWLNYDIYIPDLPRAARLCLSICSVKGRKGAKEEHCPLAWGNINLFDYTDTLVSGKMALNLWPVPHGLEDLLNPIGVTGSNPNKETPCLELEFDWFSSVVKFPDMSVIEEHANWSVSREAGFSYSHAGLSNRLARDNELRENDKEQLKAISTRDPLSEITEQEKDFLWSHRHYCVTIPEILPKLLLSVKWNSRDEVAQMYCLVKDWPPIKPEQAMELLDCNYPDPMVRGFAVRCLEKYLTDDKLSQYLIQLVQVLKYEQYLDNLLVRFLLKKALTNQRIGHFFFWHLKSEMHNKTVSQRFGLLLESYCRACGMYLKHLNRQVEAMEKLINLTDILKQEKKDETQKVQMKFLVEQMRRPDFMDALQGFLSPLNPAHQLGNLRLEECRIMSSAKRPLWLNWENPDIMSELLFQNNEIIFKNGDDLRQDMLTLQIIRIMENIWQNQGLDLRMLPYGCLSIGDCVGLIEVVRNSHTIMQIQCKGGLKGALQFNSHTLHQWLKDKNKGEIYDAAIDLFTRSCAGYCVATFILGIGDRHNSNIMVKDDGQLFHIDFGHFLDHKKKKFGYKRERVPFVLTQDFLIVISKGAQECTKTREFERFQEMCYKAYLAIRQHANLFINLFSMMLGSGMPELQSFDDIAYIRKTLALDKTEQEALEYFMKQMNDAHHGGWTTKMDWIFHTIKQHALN
Assay: Inhibition of PI3Kα efficacy assay (ADP-Glo kinase assay)
Type: biochemical
Details: Table 2; read-out: PI3Kα inhibitory activity (IC50)
pIC50: −log10 of the molar value.
# pIC50 annotations
Observed Property: pIC50

                                        smi  observed_property  reported_result
0  COc1ncc(-c2ccc3ncnc(N4CCN(C(=O)/C=C/c5ncco5)CC4)c3c2)cc1NS(=O)(=O)c1ccc(F)cc1F              pIC50             7.93
1  COc1ncc(-c2ccc3ncnc(N4CCN(C(=O)/C=C/C(C)=O)CC4)c3c2)cc1NS(=O)(=O)c1cccc(F)c1F              pIC50             8.40
2  COc1ncc(-c2ccc3ncnc(N4CCN(C(=O)/C=C/C(C)=O)CC4)c3c2)cc1NS(=O)(=O)c1cc(Cl)cn1C              pIC50             8.42
3  C=C(F)C(=O)N1C[C@H](C)N(c2ncnc3ccc(-c4cnc(OC)c(NS(=O)(=O)c5c(F)cccc5F)c4)cc23)C[C@H]1C              pIC50             8.04
4  C=C(F)C(=O)N1CC2(CCN(c3ncnc4ccc(-c5cnc(OC)c(NS(=O)(=O)c6c(F)cccc6F)c5)cc34)C2)C1              pIC50             9.20
5  COc1ncc(-c2ccc3ncnc(N4CCN(C(=O)/C=C/C(C)=O)CC4)c3c2)cc1NS(=O)(=O)c1cccc2cccc(Cl)c12              pIC50             9.00
